experimentalProtocol: in vitro
runConditions: PAMPA, pH 7.4
observedProperty: Papp at 2 h, 2 µM (×10⁻⁶ cm/s)
Give just the numeric value; ×10⁻⁶ cm/s need not be written.

Inquiry: Name the reported Papp at 2 h, 2 µM value associated with the compound Cn1c(=O)c2c(ncn2C)n(C)c1=O [Caffeine, caffeine]
Reply text: 724

----------
experimentalProtocol: in vitro
runConditions: PAMPA, pH 7.4
observedProperty: Papp (×10⁻⁶ cm/s)
Number only, in ×10⁻⁶ cm/s; omit the unit.

Inquiry: I'd like to know its Papp. The molecule in question is CN1CC[C@]23c4c5ccc(O)c4O[C@H]2[C@@H](O)CC[C@H]3[C@H]1C5 [Dihydromorphine, dihydromorphine]
Reply text: 1510

----------
experimentalProtocol: in vitro
runConditions: PAMPA, pH 7.4
observedProperty: Papp (nm/s)
Provide the reading as a plain figure in nm/s.

Inquiry: Name the reported Papp value associated with the molecule COc1cccc(C2(O)CCCCC2CN(C)C)c1 (stereo not shown)
Reply text: 1170
